Reference for the values: PubChem BioAssay AID2060496

- System: 276233-004-R-J1-PDC complex spheroid viability
- PROTOCOL DESCRIPTION: Anticancer human tumor 276233-004-R-J1-PDC patient-derived colon adenocarcinoma cell line growth inhibition [GQUAD]
- RUN CONDITIONS: second compound 3.16 µM; first compound 0.316 µM; stronger effect = lower value
Here the recorded viability, T/C is given for each entry.
Report as a plain number; the unit % is understood.

Previously resolved entries follow.
# COMPOUND, viability, T/C, %
records = [
    ("C=CC(=O)N1CCN(c2nc(=O)n(-c3c(C)ccnc3C(C)C)c3nc(-c4c(O)cccc4F)c(F)cc23)C(C)C1 (stereo not given) + Cc1[nH]c2ccc(F)cc2c1-c1nc2c3cccnc3c3ncccc3c2[nH]1", 49.4),
    ("Cn1ncnc1[C@H]1c2n[nH]c(=O)c3cc(F)cc(c23)N[C@@H]1c1ccc(F)cc1 + Cc1cnc(CNC(=O)c2c(=O)c3ccc(N4CCCN(C)CC4)nc3n3c2sc2ccccc23)cn1", 62.8),
]

Lookup: Consider the compound CC1COCCN1c1cc(-c2ccnn2C)c2ccnc(-c3ccn[nH]3)c2n1 (stereo not given) + CN(C)c1ccc(Nc2c3ccc(NC(=O)CCN4CCCC4)cc3nc3cc(NC(=O)CCN4CCCC4)ccc23)cc1 and give its measured viability, T/C.
Found: 42.6

Lookup: Consider the compound COc1ncnc(C2CC2)c1-c1ncc2cnn(Cc3ccc(-c4nc(C(F)(F)F)cn4C(C)C)cc3)c2n1 + CN(C)c1ccc(Nc2c3ccc(NC(=O)CCN4CCCC4)cc3nc3cc(NC(=O)CCN4CCCC4)ccc23)cc1 and give its measured viability, T/C.
Found: 53.1

Lookup: Consider the compound CC[C@@]1(O)C(=O)OCc2c1cc1n(c2=O)Cc2cc3c(CN(C)C)c(O)ccc3nc2-1 + CN(C)c1ccc(Nc2c3ccc(NC(=O)CCN4CCCC4)cc3nc3cc(NC(=O)CCN4CCCC4)ccc23)cc1 and give its measured viability, T/C.
Found: 46.8

Lookup: Consider the compound COc1ccc([C@@H](O)c2cc(-c3ncnc4cc(N5CCOCC5)ccc34)c(F)cc2Cl)nn1 + Cc1[nH]c2ccc(F)cc2c1-c1nc2c3cccnc3c3ncccc3c2[nH]1 and give its measured viability, T/C.
Found: 51.1

----------
- Tested on: 276233-004-R-J1-PDC complex spheroid viability
- PROTOCOL DESCRIPTION: Anticancer human tumor 276233-004-R-J1-PDC cell line growth inhibition [GQUAD];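 note: spheroids exposed to drugs for seven days; 100% = DMSO vehicle control viability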
- RUN CONDITIONS: second compound 0.316 µM; first compound 0.0316 µM; stronger effect = lower value
# note: boundary value 70% maps to F; viability, T/C below it maps to T

// below: answered compounds
# COMPOUND, CAT
data = [
    ("CC1COCCN1c1cc(C2(S(C)(=N)=O)CC2)nc(-c2ccnc3[nH]ccc23)n1 (stereo not given) + CN(C)c1ccc(Nc2c3ccc(NC(=O)CCN4CCCC4)cc3nc3cc(NC(=O)CCN4CCCC4)ccc23)cc1", "F"),
    ("CCc1c2c(nc3ccc(O)cc13)-c1cc3c(c(=O)n1C2)COC(=O)[C@]3(O)CC + Cc1[nH]c2ccc(F)cc2c1-c1nc2c3cccnc3c3ncccc3c2[nH]1", "F"),
    ("CC(=O)O[C@H]1C(=O)[C@@]2(C)[C@H]([C@H](OC(=O)c3ccccc3)[C@]3(O)C[C@H](OC(=O)[C@H](O)[C@@H](NC(=O)c4ccccc4)c4ccccc4)C(C)=C1C3(C)C)[C@]1(OC(C)=O)CO[C@@H]1C[C@@H]2O + Cc1[nH]c2ccc(F)cc2c1-c1nc2c3cccnc3c3ncccc3c2[nH]1", "F"),
]

Lookup: I wonder whether Cn1ncnc1[C@H]1c2n[nH]c(=O)c3cc(F)cc(c23)N[C@@H]1c1ccc(F)cc1 + CN(C)c1ccc(Nc2c3ccc(NC(=O)CCN4CCCC4)cc3nc3cc(NC(=O)CCN4CCCC4)ccc23)cc1 has viability, T/C below 70%. Can you tell?
Found: T

Lookup: I wonder whether CC[C@@]1(O)C(=O)OCc2c1cc1n(c2=O)Cc2cc3c(CN(C)C)c(O)ccc3nc2-1 + Cc1cnc(CNC(=O)c2c(=O)c3ccc(N4CCCN(C)CC4)nc3n3c2sc2ccccc23)cn1 has viability, T/C below 70%. Can you tell?
Found: F

Lookup: I wonder whether Cc1[nH]c2ccccc2c1CCNCc1ccc(/C=C/C(=O)NO)cc1 + CN(C)c1ccc(Nc2c3ccc(NC(=O)CCN4CCCC4)cc3nc3cc(NC(=O)CCN4CCCC4)ccc23)cc1 has viability, T/C below 70%. Can you tell?
Found: T

Lookup: I wonder whether C=CCn1c(=O)c2cnc(Nc3ccc(N4CCN(C)CC4)cc3)nc2n1-c1cccc(C(C)(C)O)n1 + Cc1[nH]c2ccc(F)cc2c1-c1nc2c3cccnc3c3ncccc3c2[nH]1 has viability, T/C below 70%. Can you tell?
Found: T

Lookup: I wonder whether O=C(c1cc(Cc2n[nH]c(=O)c3ccccc23)ccc1F)N1CCN(C(=O)C2CC2)CC1 + Cc1[nH]c2ccc(F)cc2c1-c1nc2c3cccnc3c3ncccc3c2[nH]1 has viability, T/C below 70%. Can you tell?
Found: F
